Measured GI50 at 72 h by item
test: Antiproliferative activity in mouse BAF3 cells after 72 hrs by CCK8 assay; format: cell-based
Unit µM implied. Number only.

Solved cases below.
given_smiles=O=C(CC(=O)Nc1c(F)c(F)c(F)c(F)c1F)Nc1ccc2c(/C=C/c3ccccn3)n[nH]c2c1 unit_symbol=µM recorded_result=3.68
given_smiles=O=C(CC(=O)Nc1ccc2c(/C=C/c3ccccn3)n[nH]c2c1)Nc1ccc(F)cc1 unit_symbol=µM recorded_result=5.86
given_smiles=O=C(Cc1ccc(Cl)c(C(F)(F)F)c1)Nc1ccc2c(/C=C/c3ccccn3)n[nH]c2c1 unit_symbol=µM recorded_result=3.79

For the compound shown here, O=C(CC(=O)Nc1ccc2c(/C=C/c3ccccn3)n[nH]c2c1)Nc1ccc(Cl)c(C(F)(F)F)c1 , give the reported GI50 at 72 h.
7.4

For the compound shown here, CN1CCN(c2ccc(-c3n[nH]c4cc(NC(=O)CC(=O)Nc5ccc(Cl)c(C(F)(F)F)c5)ccc34)cc2)CC1 , give the reported GI50 at 72 h.
1.35

For the compound shown here, O=C(Nc1ccc2c(/C=C/c3ccccn3)n[nH]c2c1)c1ccc(Cl)c(C(F)(F)F)c1 , give the reported GI50 at 72 h.
1.71

For the compound shown here, O=C(CC(=O)Nc1ccccc1F)Nc1ccc2c(/C=C/c3ccccn3)n[nH]c2c1 , give the reported GI50 at 72 h.
5.09

For the compound shown here, O=C(Nc1ccc(Cl)c(C(F)(F)F)c1)Nc1ccc2c(/C=C/c3ccccn3)n[nH]c2c1 , give the reported GI50 at 72 h.
1.9

For the compound shown here, Cc1ccc(-c2n[nH]c3cc(NC(=O)CC(=O)Nc4ccc(Cl)c(C(F)(F)F)c4)ccc23)cn1 , give the reported GI50 at 72 h.
4.91

For the compound shown here, O=C(CC(=O)Nc1ccc2c(/C=C/c3ccccn3)n[nH]c2c1)Nc1cccc(Br)c1 , give the reported GI50 at 72 h.
6.09

For the compound shown here, O=C(CC(=O)Nc1ccc2c(/C=C/c3ccccn3)n[nH]c2c1)Nc1cccc(F)c1 , give the reported GI50 at 72 h.
3.97

====

biological target: Mast/stem cell growth factor receptor Kit (Homo sapiens); assay: Inhibition of TEL fused wild type c-KIT (unknown origin) transfected in mouse BaF3 cells assessed as reduction in phosphorylation at Y703 residue after 2 hrs by Western blot analysis; assay type: cell-based
pEC50: −log10 of the molar value.
observed_property: pEC50

For the compound shown here, O=C(CC(=O)Nc1ccc2c(/C=C/c3ccccn3)n[nH]c2c1)Nc1cccc(F)c1 , give the reported pEC50.
< 6.00

====

assay: Apparent clearance in mouse at 10 mg/kg, po measured after 5 to 720 mins by LC-tandem mass spectrometry analysis; assay type: ADME, organism-based; details: in vivo, read-out: CL(app) (converted)
observed_property: CL/F

For the molecule shown here, O=C(CC(=O)Nc1ccc2c(/C=C/c3ccccn3)n[nH]c2c1)Nc1cccc(F)c1 , give the reported CL/F.
113 mL/min/kg

====

target: Mast/stem cell growth factor receptor Kit (Homo sapiens, UniProt P10721, T670I); experiment: Inhibition of TEL fused wild type c-KIT T670I mutant (unknown origin) transfected in mouse BaF3 cells assessed as reduction in phosphorylation at Y719 residue after 2 hrs by Western blot analysis; assay type: cell-based
observed_property: EC50 (µM)
Unit µM implied. Number only.

Value wanted: EC50 (Mast/stem cell growth factor receptor Kit (Homo sapiens, UniProt P10721, T670I)) of entry O=C(CC(=O)Nc1ccc2c(/C=C/c3ccccn3)n[nH]c2c1)Nc1cccc(F)c1
0.75

====

target: Mast/stem cell growth factor receptor Kit (Homo sapiens, UniProt P10721); assay: Inhibition of TEL fused wild type c-KIT (unknown origin) transfected in mouse BaF3 cells assessed as reduction in phosphorylation at Y823 residue after 2 hrs by Western blot analysis; assay type: cell-based
Sequence (P10721 whole entry, the tested form may be a part): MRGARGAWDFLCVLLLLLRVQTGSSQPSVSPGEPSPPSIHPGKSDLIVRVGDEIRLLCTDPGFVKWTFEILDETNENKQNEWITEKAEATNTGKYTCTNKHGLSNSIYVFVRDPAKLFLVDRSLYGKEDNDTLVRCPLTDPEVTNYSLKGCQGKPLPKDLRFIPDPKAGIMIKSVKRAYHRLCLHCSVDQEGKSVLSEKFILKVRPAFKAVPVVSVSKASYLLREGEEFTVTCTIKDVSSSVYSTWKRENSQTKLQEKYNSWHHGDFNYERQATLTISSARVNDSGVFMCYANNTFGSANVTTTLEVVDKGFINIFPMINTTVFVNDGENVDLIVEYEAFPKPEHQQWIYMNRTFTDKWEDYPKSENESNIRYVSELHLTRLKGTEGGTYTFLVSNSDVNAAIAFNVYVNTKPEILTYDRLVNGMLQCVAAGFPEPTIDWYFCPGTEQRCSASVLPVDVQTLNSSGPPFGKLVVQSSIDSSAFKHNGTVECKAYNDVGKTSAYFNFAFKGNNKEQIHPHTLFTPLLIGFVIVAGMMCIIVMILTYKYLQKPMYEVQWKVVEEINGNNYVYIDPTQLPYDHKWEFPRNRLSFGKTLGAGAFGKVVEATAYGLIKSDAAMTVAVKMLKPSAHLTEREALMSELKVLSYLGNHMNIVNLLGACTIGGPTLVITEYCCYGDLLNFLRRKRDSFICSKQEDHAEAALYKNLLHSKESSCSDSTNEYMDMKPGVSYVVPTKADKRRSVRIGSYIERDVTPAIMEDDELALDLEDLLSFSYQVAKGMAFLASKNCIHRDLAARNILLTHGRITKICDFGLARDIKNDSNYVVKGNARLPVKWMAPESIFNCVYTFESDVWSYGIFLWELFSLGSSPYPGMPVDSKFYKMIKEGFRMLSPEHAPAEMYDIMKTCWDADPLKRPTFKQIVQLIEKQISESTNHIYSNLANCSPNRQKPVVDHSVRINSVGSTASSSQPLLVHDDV
observed_property: EC50

For the compound shown here, O=C(CC(=O)Nc1ccc2c(/C=C/c3ccccn3)n[nH]c2c1)Nc1cccc(F)c1 , give the reported EC50.
> 1 µM

====

biological target: Mast/stem cell growth factor receptor Kit (Homo sapiens, UniProt P10721, T670I); assay: Inhibition of TEL fused wild type c-KIT T670I mutant (unknown origin) transfected in mouse BaF3 cells assessed as reduction in phosphorylation at Y703 residue after 2 hrs by Western blot analysis; format: cell-based
observed_property: EC50 (nM)
Unit nM implied. Number only.

For the molecule shown here, O=C(CC(=O)Nc1ccc2c(/C=C/c3ccccn3)n[nH]c2c1)Nc1cccc(F)c1 , give the reported EC50.
77

====

test: AUC (0 to t) in mouse at 10 mg/kg, po measured after 5 to 720 mins by LC-tandem mass spectrometry analysis; format: ADME, organism-based; settings: in vivo
observed_property: AUC(0-t) (ng·h/mL)
Unit ng·h/mL implied. Number only.

For the compound shown here, O=C(CC(=O)Nc1ccc2c(/C=C/c3ccccn3)n[nH]c2c1)Nc1cccc(F)c1 , give the reported AUC(0-t).
1470

====

target: Serine/threonine-protein kinase pim-3 (Homo sapiens, UniProt Q86V86)
pIC50: −log10 of the molar value.
observed_property: pIC50

Value wanted: pIC50 (Serine/threonine-protein kinase pim-3 (Homo sapiens, UniProt Q86V86)) of entry O=C(CC(=O)Nc1ccc2c(/C=C/c3ccccn3)n[nH]c2c1)Nc1cccc(F)c1
< 5.00

====

assay: Tmax in Sprague-Dawley rat at 10 mg/kg, po measured after 5 to 720 mins by LC-tandem mass spectrometry analysis; assay type: ADME, organism-based; settings: in vivo
observed_property: Tmax (h)
Unit h implied. Number only.

For the compound shown here, O=C(CC(=O)Nc1ccc2c(/C=C/c3ccccn3)n[nH]c2c1)Nc1cccc(F)c1 , give the reported Tmax.
1.7

====

assay: Half-life in Sprague-Dawley rat at 10 mg/kg, po measured after 5 to 720 mins by LC-tandem mass spectrometry analysis; format: ADME, organism-based; settings: in vivo
observed_property: half-life (min)
Unit min implied. Number only.

For the compound shown here, O=C(CC(=O)Nc1ccc2c(/C=C/c3ccccn3)n[nH]c2c1)Nc1cccc(F)c1 , give the reported half-life.
294

====

assay: MRT (0 to infinity) in Sprague-Dawley rat at 10 mg/kg, po measured after 5 to 720 mins by LC-tandem mass spectrometry analysis; format: ADME, organism-based; conditions: in vivo
observed_property: MRT inf (h)
Unit h implied. Number only.

For the compound shown here, O=C(CC(=O)Nc1ccc2c(/C=C/c3ccccn3)n[nH]c2c1)Nc1cccc(F)c1 , give the reported MRT inf.
5.4

====

assay: AUC (0 to infinity) in mouse at 10 mg/kg, po measured after 5 to 720 mins by LC-tandem mass spectrometry analysis; type: ADME, organism-based; set-up: dose 10 mg/kg, route oral, time infinity; conditions: in vivo
observed_property: AUC(0-inf) (ng·h/mL)
Unit ng·h/mL implied. Number only.

For the compound shown here, O=C(CC(=O)Nc1ccc2c(/C=C/c3ccccn3)n[nH]c2c1)Nc1cccc(F)c1 , give the reported AUC(0-inf).
1480

====

test system: Mast/stem cell growth factor receptor Kit (Homo sapiens), P10721 [T670I]; assay: Inhibition of TEL fused c-KIT T670I mutant (unknown origin) transfected in mouse BAF3 cells assessed as growth inhibition after 72 hrs by CCK8 assay; type: cell-based
Sequence (P10721 whole entry T670I, the tested form may be a part): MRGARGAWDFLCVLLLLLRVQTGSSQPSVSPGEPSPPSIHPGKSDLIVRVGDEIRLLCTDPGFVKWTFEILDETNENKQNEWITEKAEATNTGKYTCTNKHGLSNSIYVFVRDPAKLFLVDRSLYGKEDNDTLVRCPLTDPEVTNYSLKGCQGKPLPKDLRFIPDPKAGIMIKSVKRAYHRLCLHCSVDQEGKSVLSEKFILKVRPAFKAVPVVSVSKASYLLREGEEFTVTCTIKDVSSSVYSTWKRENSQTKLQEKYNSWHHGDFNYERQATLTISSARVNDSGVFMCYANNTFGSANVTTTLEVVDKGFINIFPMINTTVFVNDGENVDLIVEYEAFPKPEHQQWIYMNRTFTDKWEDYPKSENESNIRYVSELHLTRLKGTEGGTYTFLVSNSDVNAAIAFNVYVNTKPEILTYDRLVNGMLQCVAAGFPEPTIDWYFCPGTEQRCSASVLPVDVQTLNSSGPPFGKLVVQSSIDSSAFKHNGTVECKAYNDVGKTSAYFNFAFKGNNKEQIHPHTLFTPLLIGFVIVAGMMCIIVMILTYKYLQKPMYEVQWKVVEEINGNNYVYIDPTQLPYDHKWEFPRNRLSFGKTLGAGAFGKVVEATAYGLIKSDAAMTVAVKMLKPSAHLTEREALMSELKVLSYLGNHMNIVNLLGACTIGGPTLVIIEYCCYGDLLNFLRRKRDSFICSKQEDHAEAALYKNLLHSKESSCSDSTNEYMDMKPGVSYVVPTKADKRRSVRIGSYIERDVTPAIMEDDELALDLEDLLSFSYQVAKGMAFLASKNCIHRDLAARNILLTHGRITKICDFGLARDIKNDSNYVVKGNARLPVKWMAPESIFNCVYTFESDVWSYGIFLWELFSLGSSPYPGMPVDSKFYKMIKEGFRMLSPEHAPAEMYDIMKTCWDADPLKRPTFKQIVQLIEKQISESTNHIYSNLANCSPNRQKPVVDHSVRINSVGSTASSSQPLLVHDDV
Measured GI50 by item
Unit nM implied. Number only.

given_smiles=O=C(CC(=O)Nc1ccc2c(/C=C/c3ccccn3)n[nH]c2c1)Nc1cccc(F)c1 observed_property=GI50 unit_symbol=nM recorded_result=44
given_smiles=Cc1n[nH]c2cc(NC(=O)CC(=O)Nc3ccc(Cl)c(C(F)(F)F)c3)ccc12 observed_property=GI50 unit_symbol=nM recorded_result=1880

For the compound shown here, CNC(=O)c1ccccc1Sc1ccc2c(/C=C/c3ccccn3)n[nH]c2c1 , give the reported GI50.
108

For the compound shown here, Cc1ccc(-c2n[nH]c3cc(NC(=O)CC(=O)Nc4ccc(Cl)c(C(F)(F)F)c4)ccc23)cn1 , give the reported GI50.
59

For the compound shown here, CN1CCN(c2cccc(NC(=O)CC(=O)Nc3ccc4c(/C=C/c5ccccn5)n[nH]c4c3)c2)CC1 , give the reported GI50.
6170

====

target: Mast/stem cell growth factor receptor Kit (Homo sapiens, UniProt P10721)
observed_property: IC50 (nM)
Unit nM implied. Number only.

Value wanted: IC50 (Mast/stem cell growth factor receptor Kit (Homo sapiens, UniProt P10721)) of entry O=C(CC(=O)Nc1ccc2c(/C=C/c3ccccn3)n[nH]c2c1)Nc1cccc(F)c1
536

====

test: Cmax in Sprague-Dawley rat at 1 mg/kg, iv measured after 2 to 720 mins by LC-tandem mass spectrometry analysis; assay type: ADME, organism-based; parameters: dose 1 mg/kg, route intravenous; conditions: in vivo
observed_property: Cmax
Give the number first and the unit second.

For the compound shown here, O=C(CC(=O)Nc1ccc2c(/C=C/c3ccccn3)n[nH]c2c1)Nc1cccc(F)c1 , give the reported Cmax.
378 ng/mL
